B1: library; a variant is named by its letters at N, in order (parent)
chain: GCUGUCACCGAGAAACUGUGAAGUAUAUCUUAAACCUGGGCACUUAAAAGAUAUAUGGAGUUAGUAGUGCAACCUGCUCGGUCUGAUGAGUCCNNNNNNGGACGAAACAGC

# Variants of: B1
# assay-comment: normalized RNA/DNA level without ligand (relative to sTRSVctl = 100) (log10 (% of sTRSVctl)); HEK293T; ligand: cyclic di-GMP (c-di-GMP-II aptamer); higher = less ribozyme self-cleavage, higher mRNA level
# assay-conditions: reporter: mCherry (pCS4076), ligand present: no
Consider the following variants; for each one, report its normalized RNA/DNA level without ligand (log10).
Give bare numbers.

> print(dat)
   mutation.descriptor  endpoint.value
1               CGGAUC            1.63
2               ACAGAC            1.49
3               CCAUAC            1.63
4               GCUCAC            1.69
5               CCUUAU             1.6

Please state normalized RNA/DNA level without ligand (log10) for every variant in the list that follows.
1. CGCAUA
2. GGCGAC
3. CACAGC
4. UUCGUC

1. 1.29
2. 1.76
3. 1.73
4. 1.76

Please state normalized RNA/DNA level without ligand (log10) for every variant in the list that follows.
1. GAUUGA
2. AACACA
3. CUAACA
4. AGUUUA
5. UGGCAC
6. AGAUAU
7. AUUGUA
8. UGACAU

1: 1.5; 2: 1.54; 3: 1.66; 4: 1.53; 5: 1.72; 6: 1.61; 7: 1.56; 8: 1.62
